# experimental_target: T1, human TREM2 (human) (UniProt Q9NZC2)
# T1 sequence (looked up): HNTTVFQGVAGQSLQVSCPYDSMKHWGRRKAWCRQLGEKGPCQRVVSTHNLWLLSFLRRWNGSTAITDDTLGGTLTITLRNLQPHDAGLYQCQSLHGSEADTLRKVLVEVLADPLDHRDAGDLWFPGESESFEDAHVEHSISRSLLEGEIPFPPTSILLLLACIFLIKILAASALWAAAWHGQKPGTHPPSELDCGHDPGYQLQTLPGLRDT
# assay_remarks: 2nd screen, 10 nM Ab
Each item that follows carries a reported Binding Signal (fold over 6E7 parental antibody).
Report as a plain number; the unit fold is understood.

6E7 variant V75 (antibody, V domains shown) VH: EVQLVQSGAEVKKPGESLKISCKGSGYSFTSYWIAWVRQMPGKGLEWMGIIYPGDSDTRYSPSFQGQVTISADKSISTAYLQWSSLKASDTAMYFCARGRTFYYDSSDYFDYWGQGTLVTVSS VL: DIQMTQSPSSVSASVGDRVTITCRASQGISSWLAWYQQKPGKAPKLLIYAASSLQAGVPSRFSGSGSGTDFTLTISSLQPEDFATYFCQQADSYPRTFGQGTKLEIK = 4.52

Q) Item under review: 6E7 variant V26 (antibody, V domains shown) VH: EVQLVQSGAEVKKPGESLKISCKGSGYSFTSYWIGWVRQMPGKGLEWMGTIYPGDSDTRYSPSFQGQVTISADKSISTAYLQWSSLKASDTAMYFCARQRTMYYDSSDYFDAWGQGTLVTVSS VL: DIQMTQSPSSVSASVGDRVTITCRASQGISSWLAWYQQKPGKAPKLLIYAASSLQRGVPSRFSGSGSGTDFTLTISSLQPEDFATYFCQQADSYPRTFGQGTKLEIK . Reported Binding Signal (fold over 6E7 parental antibody)?
A) 3.47

Q) Next record, please: 6E7 variant V48 (antibody, V domains shown) VH: EVQLVQSGAEVKKPGESLKISCKGSGYSFGSYWIAWVRQMPGKGLEWMGIIYPGDSDVRYSPSFQGQVTISADKSISTAYLQWSSLKASDTAMYFCARMRTFYYDSSDYFDYWGQGTLVTVSS VL: DIQMTQSPSSVSASVGDRVTITCRASQGISSWLAWYQQKPGKAPKLLIYAASSLQTGVPSRFSGSGSGTDFTLTISSLQPEDFATYFCQQADSLPRTFGQGTKLEIK
A) 2.54

Where these numbers come from: patent US20260250381A1
